system: SEM cells; experiment: cell viability relative to DMSO control; higher = less cytotoxic; settings: RPMI 5 mM glucose + 10% dialyzed FBS; 48 h; 0.00234 µM
So basically: is cell viability under 90%? Then satisfied. Not under? Then not satisfied.

Please review the entries below; each comes with its answer.
NC1(Cc2ccc(Cl)cc2)CCN(c2ncnc3[nH]ccc23)CC1    not satisfied
CCC1(C)CC(=O)NC1=O (centres undefined)    not satisfied
COc1c(C)cnc(Cn2cnc3c(Cl)nc(N)nc32)c1C    not satisfied
CN(C)CCOc1cc(-c2cn[nH]c2)ccc1NC(=O)C1COc2ccccc2O1 (centres undefined)    not satisfied

### Prompt Consider the compound CC1(C)CCC[C@]2(C)[C@H]3CC(=O)O[C@]3(C)CC[C@@H]12 . Is its cell viability strictly less than 90%?
### Response not satisfied
